# reported Kd; entries follow
Target: T1, cyno TREM-1-His protein (cynomolgus monkey, UniProt A0A2K5VHG8 21-204)
T1 construct: extracellular domain; Soluble analyte of the Octet assay; not shown: His tag
T1 sequence: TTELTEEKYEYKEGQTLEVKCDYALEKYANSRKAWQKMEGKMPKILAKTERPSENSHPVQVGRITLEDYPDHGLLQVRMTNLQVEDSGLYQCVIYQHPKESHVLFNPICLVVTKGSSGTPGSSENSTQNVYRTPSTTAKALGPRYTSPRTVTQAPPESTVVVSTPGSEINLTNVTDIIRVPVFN
Test: BLI (Octet HTX), antibody captured on anti-human Fc sensor, cyno TREM-1-His as analyte, 1:1 model
Kindly answer with a numeric value in nM, unit omitted.

INSERT INTO measurements (binder, result_number) VALUES
  ('44A5 (antibody, V domains shown) VH: EVQLLESGGGLVQPGGSLRLSCAASGFTFSTYAMNWVRQAPGKGLEWVSTVSGSGRPTYYADSVKGRFTISRDNSKNTLYLQMNSLRAEDTAVYYCAKAYYSNYLFDYWGQGTLVTVSS VL: EIVMTQSPAILSVSPGERATLSCRASQSVSSNLAWYQQKPGQAPRLLIYGASTRATGVPARFSGGGSGTDFTLTISSLQSEDFAVYYCQHCKTWPPLTFGGGTKVDLK', 2.02);

Please give the measured Kd for this binder: 61G5 (antibody, V domains shown) VH: QVQLVQSGAEVKKPGASVKVSCKASGYTFTSYDINWVRQATGQGLEWMGWMNPNSGNSGSVKKFRDRVTMTRNTSISTAYMELSSLRSEDTAVYYCVRLIGYSSAWKWSFQHWGQGTLVTVSS VL: DIQMTQSPSSLSASVGDRVTITCQASRDISKYLNWYQQKPGKAPKLQIYDASNLETGVPSRFSGSGSGTDFTFTISSLQPEDIATYYCQHYDNIPITFGQGTRLEIK
1.31
